Just for reference, PubChem BioAssay (NCI) is where these values come from.

# Tested on: SNB-75 CNS
# protocol.notes: NCI tumour cell line growth inhibition, 48 h
test.readout: log10(TGI) (log10 of the value in µM)
Note: values are log10 of TGI expressed in µM.

Recorded log10(TGI), per entry:
Cc1ccc(-c2c(C#N)[n+](=O)c3cc(Cl)c(Cl)cc3n2[O-])cc1    1.58
N#Cc1c(-c2ccccc2)cc(-c2ccccc2)n(CC(=O)NO)c1=O    0.80
CC1CSC(=S)N1C(=O)N1C(=S)SCC1C (stereo unspecified)    1.94
COc1ccc2nc(NNC(=O)c3cnccn3)c3cccn3c2c1    0.97

Ask: Query the reported log10(TGI) for SNB-75 CNS; item: `COc1ccc(/C=C/c2nnc(/C=C/c3ccc(OC)c(OC)c3)o2)cc1OC`
Reply: 1.66
